- Tested on: mCherry-GAL9 expressing 16HBE cells
- Procedure Text: GAL9 recruitment assay, 16HBE
- Assay type: cell-based
- Experimental Setup: EEE 5 µM, calculated mean from >3 independent exp.
Lab note: compare Gal9 response compared to reference against 0.1. Equal or greater, write yes. Smaller, write no.

[[record]]
structure_smiles = "COc1nn(C2CCN(C)CC2)cc1Nc1ncc(Cl)c(-n2ccc3c(C#N)cccc32)n1"
assigned_class = "no"

[[record]]
structure_smiles = "COc1nn(C2CCN(C)CC2)cc1Nc1ncc(C(F)(F)F)c(-n2ccc3c(C#N)cccc32)n1"
assigned_class = "no"

[[record]]
structure_smiles = "CCOc1nn(C2CCN(C)CC2)cc1Nc1ncc(F)c(-n2ccc3c(C#N)cccc32)n1"
assigned_class = "no"

[[record]]
structure_smiles = "COc1nn(C2CCN(C)CC2)cc1Nc1ncc(F)c(-n2ccc3ccc(C#N)cc32)n1"
assigned_class = "yes"

[[record]]
structure_smiles = "CCN1CCC(n2cc(Nc3ncc(F)c(-n4ccc5c(C#N)cccc54)n3)c(OC)n2)CC1"
assigned_class = "yes"

